- target_system: rat NaPi-2b (Rattus norvegicus, UniProt Q9JJ09)
- procedure_summary: Sodium-dependent phosphate uptake of Xenopus oocytes which expressed NaPi-2b (32P)
- setup_conditions: Xenopus oocytes expressing rat NaPi-2b, 32P radioactive phosphorus; read-out: IC50 (phosphate uptake inhibitory activity)
pIC50: −log10 of the molar value. Counter-ions that a name gives are not always drawn.
property: pIC50

[[record]]
molecule = "COc1ccc(C(=O)Nc2ccc(N3CCCCC3)cc2C(=O)N/N=C/c2ncc[nH]2)cc1OC [Compound 937]"
censoring_operator = "="
reading = 3.86

[[record]]
molecule = "Cc1ccc(/C=N/NC(=O)c2ccccc2NC(=O)c2ccncc2)cc1C [Compound 163, hydrochloride]"
censoring_operator = "="
reading = 5.80

[[record]]
molecule = "COc1cccc(/C=N/NC(=O)c2cc(I)ccc2NC(=O)c2cccc(CN3CCC(N4CCCCC4)CC3)c2)c1 [Compound 488]"
censoring_operator = ">"
reading = 5.52

[[record]]
molecule = "CCN1CC(NCc2ccc(C(=O)Nc3ccc(Br)cc3C(=O)N/N=C/c3ccc(C)c(C)c3)cc2)CN1CC [Compound 750]"
censoring_operator = ">"
reading = 5.52

[[record]]
molecule = "CCN(CC)CCN(CCN(CC)CC)Cc1cccc(C(=O)Nc2scc(C)c2C(=O)N/N=C/c2cccc(F)c2)c1 [Compound 841]"
censoring_operator = ">"
reading = 5.52

[[record]]
molecule = "Cc1ccc(/C=N/NC(=O)c2ccccc2NC(=O)c2ccccc2F)cc1 [Compound 40]"
censoring_operator = "="
reading = 5.69

[[record]]
molecule = "CCN(CC)CCN(CCN(CC)CC)Cc1cccc(C(=O)Nc2scc(C)c2C(=O)N/N=C/c2ccc(Cl)c(C(F)(F)F)c2)c1 [Compound 842]"
censoring_operator = "="
reading = 5.49


* * *

Below is a list of entries, each paired with its recorded pIC50 value.
- target_system: rat NaPi-2b (Rattus norvegicus, UniProt Q9JJ09)
- procedure_summary: Sodium-dependent phosphate uptake of Xenopus oocytes which expressed NaPi-2b (32P)
- setup_conditions: Xenopus oocytes expressing rat NaPi-2b, 32P radioactive phosphorus; read-out: IC50 (phosphate uptake inhibitory activity)
pIC50: −log10 of the molar value.
property: pIC50

[[record]]
compound = "COc1ccc(NC(=O)c2cccc(CSCC(O)CO)c2)c(C(=O)N/N=C/c2ccc(C)c(C)c2)c1 (stereo not shown)"
target_system = "rat NaPi-2b (Rattus norvegicus, UniProt Q9JJ09)"
reading = 6.39

[[record]]
compound = "COc1ccc(C(=O)Nc2ccc(C)cc2C(=O)N/N=C/c2cccc(F)c2)cc1OC"
target_system = "rat NaPi-2b (Rattus norvegicus, UniProt Q9JJ09)"
reading = 5.70

[[record]]
compound = "Cc1cccc(/C=N/NC(=O)c2cc(Br)ccc2NC(=O)c2ccccn2)c1"
target_system = "rat NaPi-2b (Rattus norvegicus, UniProt Q9JJ09)"
reading = 6.29

[[record]]
compound = "COc1ccc(C(=O)Nc2ccc(Br)cc2C(=O)N/N=C(\\C)c2cccc(F)c2)cc1OC"
target_system = "rat NaPi-2b (Rattus norvegicus, UniProt Q9JJ09)"
reading = 5.40


* * *

- target_system: rat NaPi-2b (Rattus norvegicus)
- Construct: expressed in transfected cells; host or cells: Xenopus oocytes injected with cRNA
- Sequence (Q9JJ09 1-695): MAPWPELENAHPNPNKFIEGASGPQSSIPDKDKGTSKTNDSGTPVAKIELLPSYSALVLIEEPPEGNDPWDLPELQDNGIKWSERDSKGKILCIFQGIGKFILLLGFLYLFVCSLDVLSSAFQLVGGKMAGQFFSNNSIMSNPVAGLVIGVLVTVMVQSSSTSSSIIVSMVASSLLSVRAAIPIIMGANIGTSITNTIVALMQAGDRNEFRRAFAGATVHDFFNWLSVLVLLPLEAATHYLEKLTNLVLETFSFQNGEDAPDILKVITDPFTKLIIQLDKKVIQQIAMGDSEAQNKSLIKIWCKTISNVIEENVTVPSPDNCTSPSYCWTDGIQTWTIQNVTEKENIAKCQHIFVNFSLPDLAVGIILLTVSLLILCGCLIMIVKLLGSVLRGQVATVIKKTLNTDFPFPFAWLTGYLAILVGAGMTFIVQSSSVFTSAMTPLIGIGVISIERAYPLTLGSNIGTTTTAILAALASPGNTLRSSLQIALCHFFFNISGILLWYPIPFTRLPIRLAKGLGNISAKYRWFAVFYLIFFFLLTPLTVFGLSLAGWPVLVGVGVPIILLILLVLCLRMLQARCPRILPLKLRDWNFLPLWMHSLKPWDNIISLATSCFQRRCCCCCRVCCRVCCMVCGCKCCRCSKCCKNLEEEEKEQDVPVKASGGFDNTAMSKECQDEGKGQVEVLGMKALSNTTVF
- procedure_summary: Sodium-dependent phosphate uptake of Xenopus oocytes which expressed NaPi-2b (32P)
- Type: cell-based
- setup_conditions: phosphate uptake, oocytes expressing rat NaPi-2b; 300 μM, determined from inhibition curve
Below is a list of entries, each paired with its recorded inhibition at 300 µM value.
property: inhibition at 300 µM (%)

[[record]]
compound = "CC(C)(C)c1cccc(/C=N/NC(=O)c2ccccc2NC(=O)c2ccccc2F)c1O"
reading = 59.1

[[record]]
compound = "COc1ccc(/C=N/NC(=O)c2cc(N3CCCC3=O)ccc2NC(=O)c2cccc(CN(CC(C)O)CC(C)O)c2)cc1 (stereo not shown)"
reading = 45

[[record]]
compound = "CCN(CC)CCN(C)Cc1cccc(C(=O)Nc2cc(OCCOC)c(OCCOC)cc2C(=O)N/N=C/c2ccc(OC)cc2)c1"
reading = 40

[[record]]
compound = "Cc1ccc(CNNC(=O)c2cc(Cl)ccc2NC(=O)c2cccc(CSc3ccncc3)c2)cc1C"
reading = 69.9

[[record]]
compound = "CN(CCCCCCN(C)Cc1cccc(C(=O)Nc2ccc(Cl)cc2C(=O)N/N=C/c2cccc(F)c2)c1)Cc1cccc(C(=O)Nc2ccc(Cl)cc2C(=O)N/N=C/c2cccc(F)c2)c1"
reading = 46.6

[[record]]
compound = "Cc1ccc(CNNC(=O)c2cc(Cl)ccc2NC(=O)c2cccc(CSCCO)c2)cc1"
reading = 66.6

[[record]]
compound = "CC(O)CN(Cc1cccc(C(=O)Nc2sccc2C(=O)N/N=C/c2ccc(Cl)c(C(F)(F)F)c2)c1)CC(C)O (stereo not shown)"
reading = 51.6

